# experimental.target: T1, human CD70, recombinant, N-terminally biotinylated (residues 39-193) (human, UniProt P32970 39-193, N-terminal biotin)
# T1 construct: range 39-193; the same entry is used there; also called biotinylated human CD70; CD70 biotin
# T1 sequence (looked up): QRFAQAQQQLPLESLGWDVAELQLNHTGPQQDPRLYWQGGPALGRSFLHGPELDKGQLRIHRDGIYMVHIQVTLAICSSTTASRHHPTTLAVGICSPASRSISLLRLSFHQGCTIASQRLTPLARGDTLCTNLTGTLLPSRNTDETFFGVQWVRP
# assay.method.text: SPR
pKd overview
Lab note: report pKd as minus log10 of the concentration in molar units, number only.

INSERT INTO assay_data (binder, measured_attribute, readout_number) VALUES
  ('32-TC1.2-I-F07-6 (scFv, His-tagged) scFv: QVQLVQSGAEVKKPGESLKISCKGSGYSFTSYWIGWVRQMPGKGLEWMGIIYPGESDTRYSPSFQGQVTISADKSISTAYLQWSSLKASDTAMYYCARRNYYDRSGYVDAFDIWGQGTMVTVSSGGSGGSGGSGGSSSELTQDPAVSVALGQTVRITCQGDSLRRFYASWHQQKPGQAPIVVMYAENNRPSGIPDRFSGSSSGNTASLTITGAQAEDEATYYCNSRDSSGNRHVFGTGTKLTVL', 'pKd', 8.13),
  ('50-TC7-III-A11 (scFv, His-tagged; also called 1985) scFv: QVQLVQSGAEVKRPGASVKVSCKASGYTFTSYYMHWVRQAPGQGLEWMGIINPSGGSTSYAQKFQGRVTMTRDTSTSTVYMELSSLRSEDTAVYYCAIEPGYCSGGSCYPDAFDIWGQGTTVTVSSGGSGGSGGSGGSQSVLTQPPSASGTPGQRVTISCSGSSSNIGSDYVYWYQRVPGTAPKLLIYRDNQRPSGVPDRFSGSKSGTSASLAISGLRSDDEADYYCAAWDDSLSGWVFGGGTKVTVL', 'pKd', 5.38),
  ('15-TC7-I-D07 (scFv, His-tagged) scFv: QVQLQQWGAGLLKPSETLSLTCAVYGGSFSGYYWSWIRQPPGKGLEWIGEINHSGSTNYNPSLKSRVTISVDTSKNQFSLKLSSVTAADTAVYYCARVSRSRGAFDIWGQGTMVTVSSGGSGGSGGSGGSQSALTQPASVSGSPGQSITISCTGTNSDVGAYNYVSWYQQHPGKAPKLMIYEVTNRPSGVSNRFSGSKSGNTASLTISGLQAEDEADYYCSSYTSSGTWVFGGGTKLTVL', 'pKd', 5.76),
  ('42-TC4-VII-G08 (scFv, His-tagged) scFv: QVQLVQSGGGVVQPGRSLRLSCAASGFTFSSYAMHWVRQAPGKGLEWVAVISYDGSNKYYADSVKGRFTISRDNSKNTLYLQMNSLRAEDTAVYYCARDLSYDYGFDYWGQGTLVTVSSGGSGGSGGSGGSSSELTQDPAVSVALGQTVRITCQGDSLRSYYASWYQQKPGQAPVLVIYGKNNRPSGIPDRFSGSSSGNTASLTITGAQAEDEADYYCNSRDSSGNHLVVFGGGTKVTVL', 'pKd', 6.75);

For the binder 51-TC7-VIII-G06 (scFv, His-tagged) scFv: QVQLLESGGGLVQPGRSLRLSCAASGFTFDDYAMHWVRQAPGKGLEWVSGITWNSGSIGYADSVKGRFTISRDNAKNSLYLQMNSLRAEDTAVYYCAREVAARPFYYYGMDVWGQGTTVTVSSGGSGGSGGSGGSQSVLTQPPSVSVAPGKTARITCGGNNIGSKSVHWYQQKPGQAPVLVVYDDSDRPSGIPERFSGSNSGNTATLTISGTQAMDEADYYCQAWDSSTVFGGGTKLTVL , give its measured pKd value.
6.27

Using the record for 46-TC7-VII-E11 (scFv, His-tagged) scFv: QVQLVQSGGGVVQPGRSLRLSCAASGFTFSSYAMHWVRQAPGKGLEWVAVISYDGSNKYYADSVKGRFTISRDNSKNTLYLQMNSLRAEDTAVYYCARDSSGYYYGSDAFDIWGQGTMVTVSSGGSGGSGGSGGSSYELTQPPSVSVALGQTVRITCQGDSLRSYYASWYQQKPGQAPVLVIYGKNNRPSGIPDRFSGSSSGNTASLTITGAQAEDEADYYCNSRDSSGNPWVFGGGTKVTVL , state its measured pKd.
6.74

Data provenance: patent US20240252641A1
